Target: mushroom tyrosinase
Experiment: Kinetic studies of tyrosinase inhibition (Lineweaver-Burk and secondary plots)
Details: n = 3; secondary plots; read-out: Ki ± Standard Error (inhibition constant for enzyme-inhibitor complex)
Experimental: The kinetics of the interaction between TSCs 1–12 and mushroom tyrosinase were determined. […] The inhibition type was determined through creation of the Lineweaver–Burk plot (double reciprocal plot), which enables easier analysis of the Michaelis–Menten plot. […]
quantity: Ki (nM)

compound=COc1cccc(/C(C)=N/NC(N)=S)c1 readout_unit=nM result_value=1000

I. CC(=NNC(N)=S)c1ccccc1N
II. C/C(=N\NC(N)=S)c1ccc(N)cc1
III. C/C(=N\NC(N)=S)c1cccc(O)c1
IV. COc1ccccc1C(C)=NNC(N)=S
V. C/C(=N\NC(N)=S)c1cccc([N+](=O)[O-])c1
*Q* Arrange the 5 compounds by rising Ki, starting with the smallest. Reply: labels, ordered per the request.
*A* II, V, III, IV, I

a. C/C(=N\NC(N)=S)c1ccccc1[N+](=O)[O-]
b. CC(=NNC(N)=S)c1ccccc1O [TSC 7, 2’-hydroxyacetophenone thiosemicarbazone]
*Q* Exercise: compare a and b ; which one has the greater Ki? Give the label of your selection.
*A* a
